Recorded IC50 for the following molecules
Target: hNpr1 (Homo sapiens, UniProt P16066)
Sequence (P16066 33-1061): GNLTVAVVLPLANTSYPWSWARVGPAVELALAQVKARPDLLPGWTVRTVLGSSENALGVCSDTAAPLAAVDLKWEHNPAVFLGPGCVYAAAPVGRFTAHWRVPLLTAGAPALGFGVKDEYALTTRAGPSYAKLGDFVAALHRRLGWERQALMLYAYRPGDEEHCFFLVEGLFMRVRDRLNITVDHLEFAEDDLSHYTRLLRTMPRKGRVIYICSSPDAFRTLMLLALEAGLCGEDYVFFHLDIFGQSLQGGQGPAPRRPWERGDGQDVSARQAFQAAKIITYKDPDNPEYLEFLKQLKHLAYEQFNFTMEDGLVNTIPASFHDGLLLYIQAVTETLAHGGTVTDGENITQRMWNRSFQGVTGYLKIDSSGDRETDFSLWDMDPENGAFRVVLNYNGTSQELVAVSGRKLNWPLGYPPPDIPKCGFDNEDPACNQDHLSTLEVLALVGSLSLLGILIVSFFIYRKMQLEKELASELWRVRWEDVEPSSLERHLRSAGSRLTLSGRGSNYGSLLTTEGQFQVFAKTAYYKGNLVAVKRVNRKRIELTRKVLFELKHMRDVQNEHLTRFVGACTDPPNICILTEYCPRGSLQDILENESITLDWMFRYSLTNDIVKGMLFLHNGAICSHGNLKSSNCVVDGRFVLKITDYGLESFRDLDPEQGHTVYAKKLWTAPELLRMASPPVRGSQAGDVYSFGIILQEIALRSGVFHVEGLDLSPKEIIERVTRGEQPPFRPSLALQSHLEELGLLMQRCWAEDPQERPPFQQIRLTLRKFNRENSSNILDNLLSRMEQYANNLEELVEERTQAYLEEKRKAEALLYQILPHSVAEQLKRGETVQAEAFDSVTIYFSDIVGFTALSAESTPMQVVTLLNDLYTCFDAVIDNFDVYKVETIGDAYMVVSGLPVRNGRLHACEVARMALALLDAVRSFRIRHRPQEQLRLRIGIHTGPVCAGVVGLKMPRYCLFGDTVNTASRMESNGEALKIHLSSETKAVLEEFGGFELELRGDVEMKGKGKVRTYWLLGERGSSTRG
Assay: qHTS GloSensor cGMP assay, hNppa-stimulated HEK-hNpr1-cGMP-sensor cells (1536-well)
Type: cell-based
Conditions: qHTS follow-up; hNppa-stimulated; four-parameter fit; read-out: IC50, HEK-hNpr1-cGMP-sensor cells
EXPERIMENTAL_ENDPOINT: IC50 (µM)

{"columns": ["MOLECULE", "READOUT_VALUE"],
 "data": [
  ["COc1cc(CN2CCC(C)(NC(C)=O)CC2)cc(-c2ccncc2)c1", 16],
  ["CN(Cc1ccccc1)C(=O)c1cn2ccnc(-c3ccccc3)c2n1", 117],
  ["Cl.O=C1Nc2ccccc2CN(CC2CCCCC2)C12CCNCC2 [JS-1, hydrochloride]", 26],
  ["Cc1noc(C)c1-c1cc(-c2ccccc2Oc2ccccc2)cn2cncc12", 32],
  ["Cc1nn2c(c1-c1ccccc1OCc1ccccc1)N(C(=O)Cc1ccc3c(c1)OCO3)CCC2", 13],
  ["CCC(CC)c1cc([C@H]2CN3CC[C@H]2C[C@@H]3CNS(=O)(=O)c2cccs2)nc(-c2ccncc2)n1", 62],
  ["N#Cc1ccccc1CN1CCCC(C(=O)NCc2ccccc2)CCNC(=O)CC1 (centres unmarked)", 10],
  ["Cc1nn2c(c1-c1ccccc1OCc1ccccc1)N(C(=O)Cc1ccccn1)CCC2", 35],
  ["O=C(NCc1cccnc1)c1cnc2[nH]nc(-c3ccccc3)c2n1", 85],
  ["COc1ccccc1-c1n[nH]c2ncc(C(=O)NCc3cccnc3)nc12", 24],
  ["Cc1nn2c(c1-c1ccccc1Oc1ccccc1)N(C(=O)Cc1ccc3c(c1)OCO3)CCC2", 17],
  ["COc1ccc(C2(C(=O)N3CCC4(CC3)c3nccn3-c3ccccc3CN4C)CC2)cc1", 16],
  ["Cc1cc(CNC(=O)c2ccc3c(c2)n(CC2CC2)c(=O)n3C2CCCCC2)on1", 21],
  ["O=C(Cc1ccc(Cl)cc1)N1Cc2ccccc2CC2(CCCN2CC2CCNC2)C1 (centres unmarked)", 25]
]}

====

Reported pIC50 by item:
target: hNpr2 (Homo sapiens); assay: Counter-screen, Nppc-stimulated HEK-hNpr2-cGMP-sensor cells; assay type: cell-based; conditions: 1 nM Nppc-stimulated
Sequence (P20594 23-1047): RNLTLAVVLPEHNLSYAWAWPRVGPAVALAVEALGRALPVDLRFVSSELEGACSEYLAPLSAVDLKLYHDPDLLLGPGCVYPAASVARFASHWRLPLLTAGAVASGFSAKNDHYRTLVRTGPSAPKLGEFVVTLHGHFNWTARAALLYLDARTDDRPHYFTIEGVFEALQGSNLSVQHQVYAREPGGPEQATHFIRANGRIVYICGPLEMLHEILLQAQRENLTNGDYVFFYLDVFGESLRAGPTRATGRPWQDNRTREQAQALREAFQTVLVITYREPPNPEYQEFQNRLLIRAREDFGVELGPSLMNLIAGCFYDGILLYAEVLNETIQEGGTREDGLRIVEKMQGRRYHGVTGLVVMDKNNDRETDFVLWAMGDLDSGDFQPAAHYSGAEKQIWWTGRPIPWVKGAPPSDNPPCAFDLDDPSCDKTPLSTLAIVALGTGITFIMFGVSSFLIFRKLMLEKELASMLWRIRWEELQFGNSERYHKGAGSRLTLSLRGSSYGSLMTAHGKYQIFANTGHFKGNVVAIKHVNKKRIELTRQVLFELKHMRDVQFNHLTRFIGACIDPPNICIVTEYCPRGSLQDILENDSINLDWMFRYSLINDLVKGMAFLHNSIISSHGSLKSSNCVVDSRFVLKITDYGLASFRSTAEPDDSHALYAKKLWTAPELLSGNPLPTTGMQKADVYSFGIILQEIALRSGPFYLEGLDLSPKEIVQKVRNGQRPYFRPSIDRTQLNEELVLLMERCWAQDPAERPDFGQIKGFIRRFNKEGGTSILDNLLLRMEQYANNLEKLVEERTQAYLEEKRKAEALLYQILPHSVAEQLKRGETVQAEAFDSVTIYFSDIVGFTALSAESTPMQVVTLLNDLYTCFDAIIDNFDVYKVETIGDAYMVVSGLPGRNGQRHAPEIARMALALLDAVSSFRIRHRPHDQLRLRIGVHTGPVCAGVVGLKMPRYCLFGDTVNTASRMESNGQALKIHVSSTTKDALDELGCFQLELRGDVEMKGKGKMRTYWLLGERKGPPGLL
pIC50: −log10 of the molar value.

{"columns": ["MOLECULE", "SYSTEM_UNDER_TEST", "pIC50"],
 "data": [
  ["O=C(Cc1ccc(Cl)cc1)N1Cc2ccccc2CC2(CCCN2CC2CCNC2)C1 (centres unmarked)", "hNpr2 (Homo sapiens)", 5.19],
  ["Cc1noc(C)c1-c1cc(-c2ccccc2Oc2ccccc2)cn2cncc12", "hNpr2 (Homo sapiens)", 4.92],
  ["Cc1nn2c(c1-c1ccccc1OCc1ccccc1)N(C(=O)Cc1ccc3c(c1)OCO3)CCC2", "hNpr2 (Homo sapiens)", 5.04],
  ["COc1ccc(C2(C(=O)N3CCC4(CC3)c3nccn3-c3ccccc3CN4C)CC2)cc1", "hNpr2 (Homo sapiens)", 5.24],
  ["O=C(NCc1cccnc1)c1cnc2[nH]nc(-c3ccccc3)c2n1", "hNpr2 (Homo sapiens)", 4.80],
  ["COc1ccccc1-c1n[nH]c2ncc(C(=O)NCc3cccnc3)nc12", "hNpr2 (Homo sapiens)", 5.16],
  ["Cl.O=C1Nc2ccccc2CN(CC2CCCCC2)C12CCNCC2 [JS-1, hydrochloride]", "hNpr2 (Homo sapiens)", 5.14],
  ["CN(Cc1ccccc1)C(=O)c1cn2ccnc(-c3ccccc3)c2n1", "hNpr2 (Homo sapiens)", 4.70],
  ["Cc1nn2c(c1-c1ccccc1Oc1ccccc1)N(C(=O)Cc1ccc3c(c1)OCO3)CCC2", "hNpr2 (Homo sapiens)", 5.27],
  ["COc1cc(CN2CCC(C)(NC(C)=O)CC2)cc(-c2ccncc2)c1", "hNpr2 (Homo sapiens)", 4.96],
  ["Cc1nn2c(c1-c1ccccc1OCc1ccccc1)N(C(=O)Cc1ccccn1)CCC2", "hNpr2 (Homo sapiens)", 4.70],
  ["CCC(CC)c1cc([C@H]2CN3CC[C@H]2C[C@@H]3CNS(=O)(=O)c2cccs2)nc(-c2ccncc2)n1", "hNpr2 (Homo sapiens)", 4.77],
  ["Cc1cc(CNC(=O)c2ccc3c(c2)n(CC2CC2)c(=O)n3C2CCCCC2)on1", "hNpr2 (Homo sapiens)", 5.30],
  ["N#Cc1ccccc1CN1CCCC(C(=O)NCc2ccccc2)CCNC(=O)CC1 (centres unmarked)", "hNpr2 (Homo sapiens)", 5.23]
]}

====

assay: Cytotoxicity counter-screen (CellTiter-Glo); type: cell-based, human; conditions: human, HEK-hNpr1-cGMP-sensor cells; 2 hours with compound, CellTiter-Glo
EXPERIMENTAL_ENDPOINT: IC50 at 2 h (µM)

{"columns": ["COMPOUND", "EXPERIMENTAL_ENDPOINT", "READOUT_VALUE"],
 "data": [
  ["COc1ccccc1-c1n[nH]c2ncc(C(=O)NCc3cccnc3)nc12 [JS-6]", "IC50 at 2 h", 45],
  ["Cc1nn2c(c1-c1ccccc1OCc1ccccc1)N(C(=O)Cc1ccc3c(c1)OCO3)CCC2 [JS-8]", "IC50 at 2 h", 49]
]}

====

// reported IC50 per item
Biological target: hNpr1 (Homo sapiens, UniProt P16066)
Sequence (P16066 33-1061): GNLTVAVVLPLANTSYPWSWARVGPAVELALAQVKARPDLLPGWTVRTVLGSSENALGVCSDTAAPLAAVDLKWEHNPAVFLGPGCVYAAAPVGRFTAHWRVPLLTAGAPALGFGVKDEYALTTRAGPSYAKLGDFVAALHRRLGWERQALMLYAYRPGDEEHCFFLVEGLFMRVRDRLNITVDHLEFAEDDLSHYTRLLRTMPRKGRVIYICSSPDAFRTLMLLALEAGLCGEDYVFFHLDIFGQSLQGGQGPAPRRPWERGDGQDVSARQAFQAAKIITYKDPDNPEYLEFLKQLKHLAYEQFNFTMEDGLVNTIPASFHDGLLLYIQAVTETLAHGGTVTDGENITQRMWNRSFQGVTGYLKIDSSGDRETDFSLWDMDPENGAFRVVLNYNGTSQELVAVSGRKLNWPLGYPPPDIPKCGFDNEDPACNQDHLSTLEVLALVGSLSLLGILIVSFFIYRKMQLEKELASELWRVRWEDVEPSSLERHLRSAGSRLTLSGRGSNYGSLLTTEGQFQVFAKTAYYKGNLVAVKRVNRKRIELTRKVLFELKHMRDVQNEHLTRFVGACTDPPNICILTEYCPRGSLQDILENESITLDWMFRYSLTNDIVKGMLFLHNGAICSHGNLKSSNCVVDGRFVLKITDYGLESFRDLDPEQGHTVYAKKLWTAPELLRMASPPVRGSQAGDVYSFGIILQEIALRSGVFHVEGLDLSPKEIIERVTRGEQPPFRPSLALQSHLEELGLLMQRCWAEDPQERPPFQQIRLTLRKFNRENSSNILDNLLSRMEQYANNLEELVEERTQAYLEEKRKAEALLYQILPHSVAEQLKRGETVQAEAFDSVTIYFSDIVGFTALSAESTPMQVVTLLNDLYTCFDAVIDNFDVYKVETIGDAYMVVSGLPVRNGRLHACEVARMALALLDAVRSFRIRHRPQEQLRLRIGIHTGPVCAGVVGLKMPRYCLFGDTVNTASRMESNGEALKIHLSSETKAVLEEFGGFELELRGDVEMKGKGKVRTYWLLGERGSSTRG
Assay: GloSensor assay in 96-well format, HEK-hNpr1-cGMP-sensor cells
Format: cell-based
Conditions: 60 pM hNppa 5 minutes after compound; read-out: IC50 [μM] (mean ± SEM), GloSensor 96-well format

{"columns": ["COMPOUND", "SYSTEM_UNDER_TEST", "IC50 (µM)"],
 "data": [
  ["O=C(NCc1cccnc1)c1cnc2[nH]nc(-c3ccccc3)c2n1 [JS-7]", "hNpr1 (Homo sapiens, UniProt P16066)", 1.2],
  ["Cc1nn2c(c1-c1ccccc1OCc1ccccc1)N(C(=O)Cc1ccc3c(c1)OCO3)CCC2 [JS-8]", "hNpr1 (Homo sapiens, UniProt P16066)", 1.2],
  ["Cc1nn2c(c1-c1ccccc1OCc1ccccc1)N(C(=O)Cc1ccccn1)CCC2 [JS-9]", "hNpr1 (Homo sapiens, UniProt P16066)", 3.1],
  ["Cc1cc(CNC(=O)c2ccc3c(c2)n(CC2CC2)c(=O)n3C2CCCCC2)on1 [JS-11]", "hNpr1 (Homo sapiens, UniProt P16066)", 1.9],
  ["COc1ccc(C2(C(=O)N3CCC4(CC3)c3nccn3-c3ccccc3CN4C)CC2)cc1 [JS-12]", "hNpr1 (Homo sapiens, UniProt P16066)", 1.3],
  ["CCC(CC)c1cc([C@H]2CN3CC[C@H]2C[C@@H]3CNS(=O)(=O)c2cccs2)nc(-c2ccncc2)n1 [JS-3]", "hNpr1 (Homo sapiens, UniProt P16066)", 3.1],
  ["N#Cc1ccccc1CN1CCCC(C(=O)NCc2ccccc2)CCNC(=O)CC1 (stereo not drawn) [JS-13]", "hNpr1 (Homo sapiens, UniProt P16066)", 1.1],
  ["COc1cc(CN2CCC(C)(NC(C)=O)CC2)cc(-c2ccncc2)c1 [JS-4]", "hNpr1 (Homo sapiens, UniProt P16066)", 1.1],
  ["COc1ccccc1-c1n[nH]c2ncc(C(=O)NCc3cccnc3)nc12 [JS-6]", "hNpr1 (Homo sapiens, UniProt P16066)", 1.9]
]}
